System: NCI-H460 lung
Test name: NCI-60 one-dose screen, 48 h
Condition set: 10 µM unless noted
Compounds without any hit were thinned out: in the full panel of roughly 83,000, 20% have a hit. Active and inactive are the calls of the source. The calls were made as follows: active = growth percent below 10; inactive = the rest.
Classes used: active, inactive

> print(dat)
                            structure.string  classification
 1  C[C@@H](Nc1c(C#N)cnc2ccc(-c3cnc4[nH]ncc4c3)cc12)c1ccccc1        inactive
 2  Cc1ccc(NC(=O)N/N=C/c2c[nH]c3ccccc23)c(C)c1          active
 3  O=C(c1cc2cc(OCCCN3CCC3)ccc2[nH]1)N1C[C@@H](CCl)c2c1cc(OCc1ccccc1)c1ccccc21          active
 4  O=C(CSc1nc2sc3c(c2c(=O)n1-c1ccc(Cl)cc1)CCCC3)NNC(=O)c1ccc(Br)cc1        inactive
 5  Cc1ccc(Nc2nnc(-c3c[nH]c4ccccc34)o2)c(C)c1          active
 6  O=C(Nc1ccc(Br)cc1)Nc1ccc(-c2ccc3c(c2)NC(=O)/C3=C\c2ccc[nH]2)cc1          active
 7  O=C(N/N=C/c1ccc(Cl)o1)c1[nH]c2ccc(Br)cc2c1-c1ccccc1          active
 8  CCc1ccccc1-c1nc(CN[C@@H]2C[C@@H]3C[C@H]([C@H]2C)C3(C)C)c(C)o1          active
 9  CCC(=O)c1c2c(c3ccc4c5ccccc5ccc4n13)C(=O)c1ccccc1C2=O          active
10  Cc1ccc(C(=O)Nc2ccc(-n3ccnc3)c(C(F)(F)F)c2)cc1C#Cc1cnc2cccnn12        inactive
11     Cn1ncc2c(N)nc(Oc3ccccc3-c3ccccc3)nc21        inactive

---

Tested on: SK-MEL-28 melanoma
Test name: NCI-60 one-dose screen, 48 h
Condition set: 10 µM unless noted
About 83,000 compounds went through this panel and 20% of them were active in at least one assay; those are over-represented in the sample as a whole. Active and inactive are the calls of the source. How the source made its calls: active means growth percent below 10; inactive means the rest.
Classes used: active, inactive

> print(dat)
                                    compound  classification
 1  N#CC1=C(c2ccco2)Nc2c(c(-c3ccccc3)nn2-c2ccccc2)C12C(=O)Nc1ccc(Br)cc12 (stereo not given)        inactive
 2  Cn1cc(-c2cc(N)n3nc(-c4c[nH]c5ccccc45)cc3n2)c2cc(F)ccc21        inactive
 3  N#CC1=C(c2cccs2)Nc2c(c(-c3ccccc3)nn2-c2ccccc2)C12C(=O)Nc1ccc(Cl)cc12 (stereo not given)        inactive
 4  COc1ccc2[nH]c(O)c(N=NC(=O)c3ccc4nc(-c5ccc(Cl)cc5)[nH]c4c3)c2c1        inactive
 5  O=C(Nc1nc2ccc([N+](=O)[O-])cc2s1)Nc1ccccc1F        inactive
 6    Fc1ccc(Nc2nnc(-c3c[nH]c4ccccc34)o2)cc1        inactive
 7  C/C(=N/O)c1ccc(NC(=O)CSc2nnc(-c3ccc(-c4nc5ccc(Cl)cc5[nH]4)cc3)o2)cc1          active
 8     N/C(=N\c1nc2ccccc2s1)NC(=O)Nc1ccccc1F        inactive
 9  Clc1ccc2c(NCCNC34CC5CC(CC(C5)C3)C4)ccnc2c1          active
10  O=C(Nc1nc2ccc([N+](=O)[O-])cc2s1)Nc1ccc(Cl)cc1Cl        inactive
11  O=C(COc1ccc(/C=C2/C(=O)Nc3ccc(Cl)cc32)cc1)Nc1ccc(Br)cc1          active
12  COc1cc2cc(C(=O)N3C[C@@H](CCl)c4c3cc(OC(=O)N(C)CCSSCCN3CCOCC3)c3ccccc43)[nH]c2c(OC)c1OC          active
13  COc1ccc(NC(=O)N/N=C/c2c[nH]c3ccccc23)cc1        inactive
14  CCCN(CCC)S(=O)(=O)c1ccc(C(=O)O)cc1.CCCN(CCC)S(=O)(=O)c1ccc(C(=O)O)cc1.[Cl][Pt+2][Cl].[NH2-].[NH2-]          active
15  CC1=C(C(=O)Nc2ccccc2)C(c2cccc(Cl)c2Cl)n2c(nc3ccccc32)N1 (stereo not given)        inactive
16  O=C(N/N=C/c1ccc(Br)o1)c1[nH]c2ccc(Br)cc2c1-c1ccccc1          active
17  CCCCCCCCCc1ccc(C(=O)Nc2cc(C)ccc2C(=O)OC)cc1        inactive
18  CN(C(=O)CN1C(=O)/C(=C/c2ccco2)SC1=S)C1CCS(=O)(=O)C1 (stereo not given)        inactive
19  Cc1cc(C(NC(=O)CCCCCNc2cccc3c2C(=O)N(C2CCC(=O)CC2=O)C3=O)c2cccc(N(C)C)c2)c(O)c2ncccc12 (stereo not given)        inactive
20  Oc1ccc(F)c(Nc2nc(SCCN3CCOCC3)nc3c2cnn3CC(Cl)c2ccc(Br)cc2)c1 (stereo not given)        inactive

---

System: EKVX NSCLC
Test name: NCI-60 one-dose screen, 48 h (100 = growth as untreated, 0 = no growth, -100 = all killed)
Condition set: 10 µM unless noted
The panel holds about 83,000 compounds, 20% with a hit somewhere; the sample as a whole holds those more often.
# growth values compiled below
Measurement label: growth (%)

> print(dat)
                                   compound  value
1  ClC(Cn1ncc2c(Nc3cccc(Br)c3)nc(SCCN3CCOCC3)nc21)c1ccc(Br)cc1 (stereo unspecified)   16.5
2  COc1ccc(N=Nc2c(N)nn3c(-c4ccc([N+](=O)[O-])cc4)ccnc23)cc1   97.5
3  COc1ccc2c(c1)C(Sc1ccc(Br)cc1)c1c(nc(N)c(C#N)c1N)O2 (stereo unspecified)     67
4      CN(C)CCCc1ccc(Nc2cnn(C)c(=O)c2Cl)cc1   98.1
5  O=C(N/N=C/c1ccc(Br)o1)c1[nH]c2ccc(Br)cc2c1-c1ccccc1   12.6
6  COc1ccc2c(c1)c(-c1cc(N)n3nc(-c4c[nH]c5ccccc45)cc3n1)cn2C  -79.6

---

Test system: NCI-H460 lung
Test name: NCI-60 one-dose screen, 48 h (100 = growth as untreated, 0 = no growth, -100 = all killed)
Condition set: 10 µM unless noted
This is part of a sample that, as a whole, favours compounds with a hit. Of some 83,000 tested, about 20% had one in any assay.
// boundary case: growth equal to 40% maps to no (0); strictly smaller maps to yes (1)

> print(dat)
                                   compound  target.of.assay  classification
1  COc1cc(/C=N/NC(=O)c2ccc(OCc3nc4ccc(Cl)cc4[nH]3)cc2)cc(OC)c1OC    NCI-H460 lung          no (0)
2  O=c1[nH]c2ccccc2cc1CSc1ccccc1Nc1nccc(-c2ccc3c(c2)OCO3)n1    NCI-H460 lung          no (0)
3  NS(=O)(=O)c1cccc(Nc2nc(SCC(=O)c3ccc(F)cc3)nc3ccccc23)c1    NCI-H460 lung         yes (1)
4  COc1ccc(C(=O)C[n+]2cccc3c4ccccc4ccc32)cc1    NCI-H460 lung         yes (1)
5  O=Cc1cncc(-c2ccc3ncnc(N4CCc5cc(F)c(Cl)cc54)c3c2)c1    NCI-H460 lung         yes (1)
6  Cc1ccc(C(C(=O)NC2CCCCC2)N(Cc2ccccc2Cl)C(=O)c2ccc(CN3CCOCC3)o2)o1 (stereo not drawn)    NCI-H460 lung          no (0)
7  CCCCC[C@@H]1C/C=C(\C)[C@@H](O)C(C)(C)C(=O)[C@@H](C)/C=C(\C)[C@@H]2C[C@H](O)C[C@](O)(CC(=O)O1)O2    NCI-H460 lung          no (0)
8  C=CCSc1nnc(-c2ccc(-c3nc4ccccc4[nH]3)cc2)o1    NCI-H460 lung          no (0)

---

Tested on: SK-OV-3 ovarian
Test name: NCI-60 one-dose screen, 48 h (100 = growth as untreated, 0 = no growth, -100 = all killed)
Condition set: 10 µM unless noted
The panel holds about 83,000 compounds, 20% with a hit somewhere; the sample as a whole holds those more often. Activity calls are given as the source filed them. The calls were made as follows: active = growth percent below 10; inactive = the rest.
Measurement label: growth

> print(dat)
                                    molecule             value
 1  COc1cc2cc(C(=O)N3C[C@@H](CCl)c4c3cc(OC(=O)N(CCC(=O)N3CCN(C)CC3)[C@H]3CCSSC3)c3ccccc43)[nH]c2c(OC)c1OC  10.8% (inactive)
 2  Cc1nn(-c2ccccc2)c2nc(C)n(CC(=O)N/N=C/c3ccccc3O)c(=O)c12    25% (inactive)
 3  Cc1ccc2nc(COc3ccc(C(=O)NNC(=O)Nc4ccc(Cl)c(C(F)(F)F)c4)cc3)[nH]c2c1  70.9% (inactive)
 4  Cc1cc(C(NC(=O)CCCCCNc2cccc3c2C(=O)N(C2CCC(=O)CC2=O)C3=O)c2cccc(N(C)C)c2)c(O)c2ncccc12 (stereo not given)   -2.15% (active)
 5  CCCCNC(=S)Nc1ccc(OCc2nc3ccc(Cl)cc3[nH]2)cc1  75.4% (inactive)
 6  O=C1NC(=NC23CC4CC(CC(C4)C2)C3)N/C1=C\c1ccc2ncccc2c1   -57.4% (active)
 7  Cc1ccc(C2CC(c3ccc(NC(=O)Nc4ccccc4)cc3)=NN2c2ccc(S(C)(=O)=O)cc2)cc1 (stereo not given)  26.8% (inactive)
 8  O=C(CSc1nnc(-c2ccc(-c3nc4ccccc4[nH]3)cc2)o1)Nc1ccc(Br)cc1    79% (inactive)
 9  N#CC1=C(c2cccs2)Nc2c(c(-c3ccccc3)nn2-c2ccccc2)C12C(=O)Nc1ccccc12 (stereo not given)  28.4% (inactive)
10  O=c1ccc(Cn2c(C(F)(F)F)cc3c(Cl)ncnc32)c[nH]1   119% (inactive)
